src = patent US10722520B2

// values below are log10 IC50; system is OXA-11 (Pseudomonas aeruginosa, UniProt Q06778)
Measured quantity: log10 IC50 (log10 of the value in nM)

Compound	log10 IC50
CNCc1cn(C2=CC3CN(C2)C(=O)N3OS(=O)(=O)O)nn1 (centres unmarked)	2.11
NC(=O)CNCc1cn(C2=CC3CN(C2)C(=O)N3OS(=O)(=O)O)nn1 (centres unmarked)	2.15
NCCNC(=O)c1cnn(C2=CC3CN(C2)C(=O)N3OS(=O)(=O)O)c1 (centres unmarked)	1.70
NCCc1ccn(C2=CC3CN(C2)C(=O)N3OS(=O)(=O)O)n1 (centres unmarked)	1.83
O=C1N2CC(n3ccsc3=O)=CC(C2)N1OS(=O)(=O)[O-].[Na+] (centres unmarked)	1.96
O=C(Nc1cc[nH]n1)c1ccn(C2=CC3CN(C2)C(=O)N3OS(=O)(=O)[O-])n1.[Na+] (centres unmarked)	0.88
NCCONC(=O)c1cn(C2=CC3CN(C2)C(=O)N3OS(=O)(=O)O)nn1 (centres unmarked)	2.04
O=C(N[C@@H]1CCNC1)c1ccn(C2=CC3CN(C2)C(=O)N3OS(=O)(=O)O)n1 (some centres unmarked)	1.38
O=C(Nc1ncco1)c1ccn(C2=CC3CN(C2)C(=O)N3OS(=O)(=O)[O-])n1.[Na+] (centres unmarked)	1.32
O=C(N[C@H]1CCNC1)c1ccn(C2=CC3CN(C2)C(=O)N3OS(=O)(=O)O)n1 (some centres unmarked)	1.34
O=C1N2CC(n3nccc3CCO)=CC(C2)N1OS(=O)(=O)[O-].[Na+] (centres unmarked)	3.59
O=C1N2CC(n3ccnc3CO)=CC(C2)N1OS(=O)(=O)[O-].[Na+] (centres unmarked)	2.23
O=C1N2CC(n3ccc(CO)n3)=CC(C2)N1OS(=O)(=O)O (centres unmarked)	1.85
O=C(Nc1ccn(C2=CC3CN(C2)C(=O)N3OS(=O)(=O)O)n1)c1cncs1 (centres unmarked)	1.20
NCCONC(=O)c1ccn(C2=CC3CN(C2)C(=O)N3OS(=O)(=O)O)n1 (centres unmarked)	1.69
NC(=O)Cc1ccn(C2=CC3CN(C2)C(=O)N3OS(=O)(=O)[O-])n1.[Na+] (centres unmarked)	1.96
O=C(c1ccn(C2=CC3CN(C2)C(=O)N3OS(=O)(=O)[O-])n1)N1CCOCC1.[Na+] (centres unmarked) [Example 31, sulfate]	1.52

---

We begin with a simple list: items and their reported MIC.
# Test system: E. coli 190317
# Assay overview: MIC of compound alone, broth microdilution
# Format: cell-based
# Measurement setup: Escherichia coli; strain 190317; compound alone; read-out: MIC compounds of the invention alone
Measured quantity: MIC (µg/mL)

Molecule	Relation	Reported measurement
NC(=O)CONC(=O)c1ccn(C2=CC3CN(C2)C(=O)N3OS(=O)(=O)[O-])n1.[Na+] (centres unmarked)	=	8
O=C(Nc1ccccn1)c1ccn(C2=CC3CN(C2)C(=O)N3OS(=O)(=O)[O-])n1.[Na+] (centres unmarked)	>	32
O=C(Nc1cc[nH]n1)c1ccn(C2=CC3CN(C2)C(=O)N3OS(=O)(=O)[O-])n1.[Na+] (centres unmarked)	=	32
CC(=O)c1cnn(C2=CC3CN(C2)C(=O)N3OS(=O)(=O)[O-])c1.[Na+] (centres unmarked)	=	32
O=C1N2CC(n3cc(CO)cn3)=CC(C2)N1OS(=O)(=O)[O-].[Na+] (centres unmarked)	=	4
O=C1N2CC(n3cc(F)cn3)=CC(C2)N1OS(=O)(=O)[O-].[Na+] (centres unmarked)	=	4
O=C(N[C@H]1CCNC1)c1ccn(C2=CC3CN(C2)C(=O)N3OS(=O)(=O)O)n1 (some centres unmarked)	=	2
NC(=O)Cc1ccn(C2=CC3CN(C2)C(=O)N3OS(=O)(=O)[O-])n1.[Na+] (centres unmarked)	=	4

---

We begin with a simple list: items and their reported pIC50.
# System tested: CMY-37 (Citrobacter freundii)
# Measurement setup: read-out: IC50 β-lactamase CMY-37
pIC50: −log10 of the molar value.

Compound	System tested	pIC50
NS(=O)(=O)c1cnn(C2=CC3CN(C2)C(=O)N3OS(=O)(=O)[O-])c1.[Na+] (stereo not drawn)	CMY-37 (Citrobacter freundii)	7.68
O=C1N2CC(n3cc(F)cn3)=CC(C2)N1OS(=O)(=O)[O-].[Na+] (stereo not drawn) [Example 14, sulfate]	CMY-37 (Citrobacter freundii)	8.00
O=C1N2CC(n3ccnc3CO)=CC(C2)N1OS(=O)(=O)[O-].[Na+] (stereo not drawn)	CMY-37 (Citrobacter freundii)	6.92
O=C1N2CC(n3cc(C(F)(F)F)cn3)=CC(C2)N1OS(=O)(=O)[O-].[Na+] (stereo not drawn)	CMY-37 (Citrobacter freundii)	7.92
O=C1N2CC(n3ncnn3)=CC(C2)N1OS(=O)(=O)[O-].[Na+] (stereo not drawn)	CMY-37 (Citrobacter freundii)	7.59
COc1cnn(C2=CC3CN(C2)C(=O)N3OS(=O)(=O)[O-])c1.[Na+] (stereo not drawn)	CMY-37 (Citrobacter freundii)	8.03
CC(=O)c1ccn(C2=CC3CN(C2)C(=O)N3OS(=O)(=O)[O-])n1.[Na+] (stereo not drawn) [Example 28, sulfate]	CMY-37 (Citrobacter freundii)	7.43
O=C1N2CC(n3nccc3CCO)=CC(C2)N1OS(=O)(=O)[O-].[Na+] (stereo not drawn)	CMY-37 (Citrobacter freundii)	6.89
NC(=O)CONC(=O)c1ccn(C2=CC3CN(C2)C(=O)N3OS(=O)(=O)[O-])n1.[Na+] (stereo not drawn)	CMY-37 (Citrobacter freundii)	8.06
O=C(Nc1nncs1)c1ccn(C2=CC3CN(C2)C(=O)N3OS(=O)(=O)[O-])n1.[Na+] (stereo not drawn)	CMY-37 (Citrobacter freundii)	7.70
O=C(Nc1nccs1)c1ccn(C2=CC3CN(C2)C(=O)N3OS(=O)(=O)[O-])n1.[Na+] (stereo not drawn)	CMY-37 (Citrobacter freundii)	8.04
O=C(CO)Nc1ccn(C2=CC3CN(C2)C(=O)N3OS(=O)(=O)[O-])n1.[Na+] (stereo not drawn)	CMY-37 (Citrobacter freundii)	8.23
O=C(Nc1ccn(C2=CC3CN(C2)C(=O)N3OS(=O)(=O)[O-])n1)c1nccs1.[Na+] (stereo not drawn)	CMY-37 (Citrobacter freundii)	8.21
NC(=O)c1cnn(C2=CC3CN(C2)C(=O)N3OS(=O)(=O)[O-])c1.[Na+] (stereo not drawn)	CMY-37 (Citrobacter freundii)	7.66
O=C(Nc1ncco1)c1ccn(C2=CC3CN(C2)C(=O)N3OS(=O)(=O)[O-])n1.[Na+] (stereo not drawn)	CMY-37 (Citrobacter freundii)	7.82
O=C1N2CC(n3ccsc3=O)=CC(C2)N1OS(=O)(=O)[O-].[Na+] (stereo not drawn)	CMY-37 (Citrobacter freundii)	7.48
O=C(CCO)Nc1ccn(C2=CC3CN(C2)C(=O)N3OS(=O)(=O)[O-])n1.[Na+] (stereo not drawn)	CMY-37 (Citrobacter freundii)	8.20
O=C(NCCO)c1ccn(C2=CC3CN(C2)C(=O)N3OS(=O)(=O)[O-])n1.[Na+] (stereo not drawn)	CMY-37 (Citrobacter freundii)	7.28
CC(=O)c1cnn(C2=CC3CN(C2)C(=O)N3OS(=O)(=O)[O-])c1.[Na+] (stereo not drawn)	CMY-37 (Citrobacter freundii)	8.08
O=C1N2CC(n3cncn3)=CC(C2)N1OS(=O)(=O)[O-].[Na+] (stereo not drawn)	CMY-37 (Citrobacter freundii)	7.44
O=C1N2CC(n3cc(CO)cn3)=CC(C2)N1OS(=O)(=O)[O-].[Na+] (stereo not drawn)	CMY-37 (Citrobacter freundii)	8.00

---

# System tested: AmpC (P99) (Enterobacter cloacae, UniProt P05364)
# Measurement setup: read-out: IC50 β-lactamase AmpC (P99); class (C); nitrocefin 200 μM, 30-min pre-incubation, enzyme 0.2 nM

Molecule	IC50
CN(C)C.NC(=O)CCc1nccn1C1=CC2CN(C1)C(=O)N2OS(=O)(=O)O (stereo not shown)	92 nM
O=C1N2CC(n3ccnn3)=CC(C2)N1OS(=O)(=O)[O-].[Na+] (stereo not shown)	10 nM
N#Cc1ccn(C2=CC3CN(C2)C(=O)N3OS(=O)(=O)[O-])n1.[Na+] (stereo not shown)	30 nM
NCc1cnn(C2=CC3CN(C2)C(=O)N3OS(=O)(=O)[O-])c1.O=C(O)C(F)(F)F.[Na+] (stereo not shown)	80 nM
O=C1N2CC(n3cc(S(=O)(=O)NCCO)cn3)=CC(C2)N1OS(=O)(=O)[O-].[Na+] (stereo not shown)	9.5 nM
O=C(O)C(F)(F)F.O=C1N2CC(n3ccc(CNc4nccs4)n3)=CC(C2)N1OS(=O)(=O)[O-].[Na+] (stereo not shown)	12 nM
NCc1cn(C2=CC3CN(C2)C(=O)N3OS(=O)(=O)[O-])nn1.O=C(O)C(F)(F)F.[Na+] (stereo not shown)	21 nM

---

# System tested: OXA-15 (Pseudomonas aeruginosa)
# Sequence (Q51574 22-275): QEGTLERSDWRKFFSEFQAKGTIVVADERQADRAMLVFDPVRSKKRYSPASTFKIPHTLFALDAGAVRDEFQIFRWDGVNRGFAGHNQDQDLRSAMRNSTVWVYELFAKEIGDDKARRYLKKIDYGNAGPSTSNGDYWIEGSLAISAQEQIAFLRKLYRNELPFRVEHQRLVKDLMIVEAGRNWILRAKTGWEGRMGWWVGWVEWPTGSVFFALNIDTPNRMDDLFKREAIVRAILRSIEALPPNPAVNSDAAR
# Assay overview: biochemical
Labelling: IC50 reported below 30 nM becomes t; at or above becomes f.

Compound	Label class
NCCONC(=O)c1ccn(C2=CC3CN(C2)C(=O)N3OS(=O)(=O)O)n1 (centres unmarked) [Example 46]	f
Nc1ncc(C(=O)Nc2ccn(C3=CC4CN(C3)C(=O)N4OS(=O)(=O)[O-])n2)s1.[Na+] (centres unmarked) [Example 13]	t
NC(=O)c1cnn(C2=CC3CN(C2)C(=O)N3OS(=O)(=O)[O-])c1.[Na+] (centres unmarked) [Example 7]	f
O=C1N2CC(n3nccn3)=CC(C2)N1OS(=O)(=O)O (centres unmarked) [Example 3]	f
NCCNC(=O)c1cnn(C2=CC3CN(C2)C(=O)N3OS(=O)(=O)O)c1 (centres unmarked) [Example 38]	t
COc1cnn(C2=CC3CN(C2)C(=O)N3OS(=O)(=O)[O-])c1.[Na+] (centres unmarked) [Example 9]	f
CC(=NOCCN)c1ccn(C2=CC3CN(C2)C(=O)N3OS(=O)(=O)O)n1 (mixture of isomers) [Example 29]	f
O=C1N2CC(n3ccc(F)n3)=CC(C2)N1OS(=O)(=O)[O-].[Na+] (centres unmarked) [Example 18]	f
O=C(N[C@H]1CCNC1)c1ccn(C2=CC3CN(C2)C(=O)N3OS(=O)(=O)O)n1 (some centres unmarked) [Example 82]	f
O=C1N2CC(n3cc(CNCCO)nn3)=CC(C2)N1OS(=O)(=O)O (centres unmarked) [Example 67]	t
O=C1N2CC(n3cncn3)=CC(C2)N1OS(=O)(=O)[O-].[Na+] (centres unmarked) [Example 5]	t
O=C1N2CC(n3ccc([C@H](O)CO)n3)=CC(C2)N1OS(=O)(=O)[O-].[Na+] (some centres unmarked) [Example 76]	f
O=C(Nc1ccccn1)c1ccn(C2=CC3CN(C2)C(=O)N3OS(=O)(=O)[O-])n1.[Na+] (centres unmarked) [Example 80]	t
O=C1N2CC(n3cc(N4CCNCC4)cn3)=CC(C2)N1OS(=O)(=O)O (centres unmarked) [Example 42]	f
O=C1N2CC(n3ncnn3)=CC(C2)N1OS(=O)(=O)[O-].[Na+] (centres unmarked) [Example 44]	f
